Reference source for all entries: ChEMBL document CHEMBL1201862

Parameter GI50: see the listing below.
Tested on: U-251
procedure-details: NCI tumour cell line growth inhibition, 48 h
Active and inactive are the calls of the source. No stated cut-off is given here; in the data, active = GI50 up to about 1.1 µM and inactive = higher.
observable: GI50

molecule	observable	result
CC#CC1C(OC(=O)c2ccccc2)CCCC1(CI)N=[N+]=[N-] (centres undefined)	GI50	59.7 µM (inactive)
C/C=C1/CN2CCC34C5=CC(=O)C(c6cc7c(cc6OC)N(C)C6=C(C(=O)OC)CC8(CC)CCCN9CCC67C98)=CC5=NC23CCC1C4C(=O)OC (centres undefined)	GI50	15.2 µM (inactive)
Cc1coc2c1C[C@@]1(C)[C@H](CCC[C@@H]1C)[C@H]2O	GI50	42.4 µM (inactive)
CN1S(=O)(=O)N(C)P12(N=P(CP(=NP13(N(C)S(=O)(=O)N1C)N(C)S(=O)(=O)N3C)(c1ccccc1)c1ccccc1)(c1ccccc1)c1ccccc1)N(C)S(=O)(=O)N2C	GI50	> 100 µM (inactive)

---

Test system: HT-29
procedure-details: NCI tumour cell line growth inhibition, 48 h
The source made the active and inactive calls. Rule as the data show it: active = GI50 up to about 1.1 µM and inactive = higher.
Parameter GI50: see the listing below.

compound	GI50
COC1CC(n2ccc(=O)[nH]c2=O)OC1CO (configuration not stated)	> 100 µM (inactive)
Fc1ccc(C(OCCN2CCC3CCC(C2)N3CCCc2ccccc2)c2ccc(F)cc2)cc1 (configuration not stated)	3.3 µM (inactive)
COc1cc2c(cc1OCCCCCCCCCCN1C(=O)c3cccc4cccc(c34)C1=O)N=C[C@@H]1CCCN1C2=O	6.76 µM (inactive)
O=c1[nH]c2ccccc2c(=O)c2cc3ccccc3cc12	> 100 µM (inactive)
O=C1OC2(CCCCC2)C(Oc2ccc(Cl)cc2)=C1F	26.8 µM (inactive)
CCCCCCNC(=O)C(C)C1CCC2(C)C=CC(=O)C(C)=C2C1O (configuration not stated)	> 100 µM (inactive)
c1ccc2c(c1)CCN1CCc3c([nH]c4ccccc34)C21 (configuration not stated)	26.9 µM (inactive)
C[C@@H](C1CC[C@H]2[C@@H]3[C@@H]4O[C@@H]4[C@@]4(O)CC=CC(=O)[C@]4(C)[C@H]3C[C@H](O)[C@]12C)[C@H]1C[C@]2(C)O[C@]2(C)C(=O)O1 (some centres not stated)	> 100 µM (inactive)
CC(N)Cc1ccc(F)cc1 (configuration not stated)	> 100 µM (inactive)
CCOC(=O)c1c(OCC)[nH]c(=O)c(C(c2cccs2)c2c(O)c(C(=O)OCC)c(OCC)[nH]c2=O)c1O	16.1 µM (inactive)
CN1/C(=C/C(=O)c2ccc(Cl)cc2)Nc2ccccc21	50.7 µM (inactive)
C1=CCC[C@@H]2CN3CCCC/C=C\CCCC[C@H]4C[C@H](CN(CCCCCCCC1)C4)[C@H]2CC3	10.9 µM (inactive)
O=c1[nH]nc(Cc2ccccc2)n1/N=C/c1ccco1	> 100 µM (inactive)
NC(=O)CSc1nc2ccccc2c(=O)n1N	> 100 µM (inactive)
CO/N=C/c1cc(OC)c(OC)c(OC)c1	> 100 µM (inactive)
CC(=O)OCC1=CC2OC(=O)C3=COC(OC4OC(CO)C(O)C(O)C4O)C1C32 (configuration not stated)	> 100 µM (inactive)
O=C(CSc1nc2ccc(I)cc2c(=O)n1Cc1ccccc1)NN1C(=O)CSC1c1ccccc1 (configuration not stated)	35 µM (inactive)
CCOC(=O)/C=C(\C(=O)OCC)n1cc(C)c(=O)n(Cc2cn(COCCOC(C)=O)nn2)c1=O	7.33 µM (inactive)
N#CC(NNC(=O)Cc1ccccc1)c1c(O)ccc2ccccc12 (configuration not stated)	11.3 µM (inactive)
S=C(NN=C1NCCCCN1)Nc1ccccc1	23 µM (inactive)
CC(=O)SC(C[N+](=O)[O-])c1ccc2c(c1)OCO2 (configuration not stated)	2.49 µM (inactive)
COc1cc2c(cc1C1=NC(C)(C)CO1)OCO2	> 100 µM (inactive)
CC1=NN(c2ccccc2)C(=O)/C1=C/c1ccc(O)cc1	> 100 µM (inactive)
O=[N+]([O-])C1(CO)COC2(OC1)c1ccccc1-c1ccccc12	> 63.5 µM (inactive)
CN(CCCNC(=O)c1c2ccc3ccccc3c2nn1C)CCCNC(=O)c1c2ccc3ccccc3c2nn1C	2.53 µM (inactive)
O=c1c2ccccc2nc2sc(/N=C/C=C/c3ccccc3)nn12	> 100 µM (inactive)
CC1(C)CC(=O)c2c(-c3ccc(Cl)cc3)c(C#N)c(=S)n(C3OC(CO)C(O)C(O)C3O)c2C1 (configuration not stated)	26.7 µM (inactive)
Cn1c(CBr)nc2c1C(=O)c1nc(CBr)[nH]c(=O)c1C2=O	> 100 µM (inactive)
C[C@H]1COC2=C1C(=O)C(=O)c1c2ccc2c1CCCC2(C)C [CRYPTOTANSHINONE]	2.18 µM (inactive)
COc1ccc(N2C(=O)/C(=C\c3cc(OC)c(OC)c(OC)c3)SC2c2ccccc2)cc1 (configuration not stated)	> 100 µM (inactive)
O=C1C=C2CO[C@H]3OC[C@H](O)[C@@H]1[C@@H]23	> 100 µM (inactive)
C=CC1[C@H]2COC(C)(C)O[C@@H]2CC(=O)C1(C)C (some centres not stated)	> 100 µM (inactive)
CSc1nc(NC2OCC(OC(C)=O)C(OC(C)=O)C2OC(C)=O)c(/N=C\C=N\c2c(NC3OCC(OC(C)=O)C(OC(C)=O)C3OC(C)=O)nc(SC)n(C)c2=O)c(=O)n1C (configuration not stated)	> 100 µM (inactive)
N#Cc1nc(C2CCC2)oc1N	> 100 µM (inactive)
COc1ccc(-c2nc(N3CCCC3)no2)cc1	54.7 µM (inactive)
C(=N\c1ccc(-c2nc3ccccc3o2)cc1)/c1ccco1	63.5 µM (inactive)
CCOC(=O)c1ccc(NC(=O)O/N=C(/Cl)CC)cc1	18.4 µM (inactive)
C=CCN1C(=O)N/C(=C\c2ccc(Cl)cc2)C1=O	> 100 µM (inactive)
CN1CCC(C(=O)NNc2ccccc2)CC1	7.53 µM (inactive)
CCC1=CC2CC(C(=O)OC)C1(N(C)C)C2=O (configuration not stated)	> 100 µM (inactive)
Cc1c2ccccc2c(CO)c2cc(F)c3ccccc3c12	19.1 µM (inactive)
Cc1nc(C(N)=S)sc1/C(CC(=O)C(=O)Nc1cccc2ccc(O)cc12)=N\NC(=O)c1ccncc1	37.8 µM (inactive)
